Cited source: ChEMBL document CHEMBL5528006

# Test method notes: Toxicity in BALB/c nude mouse xenografted with human Eca-109 cells assessed as survival rate at 3 mg/kg, iv measured within 6 days relative to control
# Type: organism-based
# Measurement context: BALB/c nude, in vivo, time 6 day, read-out: Activity
Observed property: survival at 144 h (%)
Give just the number in %; leave the unit off.

Incoming: Report survival at 144 h, nothing else, for this compound: `O=C(O)COc1cc(OCC(=O)O)cc(-c2c3nc(cc4[nH]c(c(-c5cc(OCC(=O)O)cc(OCC(=O)O)c5)c5nc(cc6[nH]c2c2cc7ccccc7cc62)-c2cc6ccccc6cc2-5)c2cc5ccccc5cc42)-c2cc4ccccc4cc2-3)c1`
Outgoing: 20
